Cited source for all entries: paper PMC7838034

molecular target: PARP1 (Homo sapiens); assay: PARP1 inhibition assay; assay type: biochemical; settings: read-out: Inhibition rate PARP1, 10 μmol/L; tested in duplicate, average
Sequence (P09874 whole entry): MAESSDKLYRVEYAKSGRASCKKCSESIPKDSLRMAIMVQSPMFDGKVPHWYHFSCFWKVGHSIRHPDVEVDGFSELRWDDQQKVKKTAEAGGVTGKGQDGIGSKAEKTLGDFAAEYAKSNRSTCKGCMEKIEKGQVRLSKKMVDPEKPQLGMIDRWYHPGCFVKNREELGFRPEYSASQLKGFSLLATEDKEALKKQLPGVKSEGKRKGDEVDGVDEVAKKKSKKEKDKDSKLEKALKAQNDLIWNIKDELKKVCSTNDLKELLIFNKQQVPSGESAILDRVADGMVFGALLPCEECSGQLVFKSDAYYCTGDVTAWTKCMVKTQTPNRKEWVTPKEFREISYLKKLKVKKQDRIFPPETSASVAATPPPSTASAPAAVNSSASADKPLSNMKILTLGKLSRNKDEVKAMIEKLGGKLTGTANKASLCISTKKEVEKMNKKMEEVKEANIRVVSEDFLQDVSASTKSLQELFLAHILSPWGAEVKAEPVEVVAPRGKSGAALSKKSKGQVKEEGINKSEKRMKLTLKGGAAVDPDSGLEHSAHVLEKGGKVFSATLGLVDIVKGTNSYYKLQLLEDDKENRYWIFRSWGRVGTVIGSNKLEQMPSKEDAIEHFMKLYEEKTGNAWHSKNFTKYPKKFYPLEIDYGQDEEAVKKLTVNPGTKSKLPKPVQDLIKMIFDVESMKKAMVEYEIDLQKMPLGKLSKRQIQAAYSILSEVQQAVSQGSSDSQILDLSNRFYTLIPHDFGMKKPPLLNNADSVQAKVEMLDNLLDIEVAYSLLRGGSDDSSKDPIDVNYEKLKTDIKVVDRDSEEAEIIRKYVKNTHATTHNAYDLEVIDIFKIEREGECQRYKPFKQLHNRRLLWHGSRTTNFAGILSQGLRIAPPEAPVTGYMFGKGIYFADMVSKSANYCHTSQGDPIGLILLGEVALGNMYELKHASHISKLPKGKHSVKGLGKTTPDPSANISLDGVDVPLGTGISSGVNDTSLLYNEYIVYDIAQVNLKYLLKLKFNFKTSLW
Record yes whenever inhibition at 10 µM is at 60% or higher; record no when lower.

Past entries and their recorded results:
>  <Compound>
O=c1[nH]c(-c2ccc(N3CCOCC3)cc2)nc2ccccc12

>  <Class Name>
no

$$$$
>  <Compound>
COc1cc(OC)c2c(=O)[nH]c(-c3ccc(OCCOc4ccccc4C(N)=O)cc3)nc2c1 [Compound 19d]

>  <Class Name>
yes

$$$$
>  <Compound>
COc1cc(OC)c2c(=O)[nH]c(-c3cc(OC)c(OCCOn4nnc5ccccc54)c(OC)c3)nc2c1 [Compound 19j]

>  <Class Name>
no

$$$$
>  <Compound>
COc1cc(OC)c2c(=O)[nH]c(-c3ccc(OCCOn4nnc5ccccc54)c(Cl)c3)nc2c1 [Compound 19p]

>  <Class Name>
no

$$$$
>  <Compound>
COc1cc(OC)c2c(=O)[nH]c(-c3cc(C)c(OCCOc4ccccc4C(N)=O)c(C)c3)nc2c1 [Compound 19f]

>  <Class Name>
yes

$$$$
>  <Compound>
COc1cc(OC)c2c(=O)[nH]c(-c3cc(Cl)ccc3OCCCOc3ccccc3C(N)=O)nc2c1 [Compound 19b]

>  <Class Name>
yes

$$$$

*Q* Form field: inhibition at 10 µM at least 60%? Entry: COc1cc(OC)c2c(=O)[nH]c(-c3ccc(OCOc4ccccc4C(N)=O)cc3)nc2c1 [Compound 19v]
*A* no

*Q* Form field: inhibition at 10 µM at least 60%? Entry: COc1cc(OC)c2c(=O)[nH]c(-c3ccc(C(=O)N4CCn5c(nnc5C(F)(F)F)C4)cc3F)nc2c1 [Compound 15c]
*A* no

====

target: PARP1 (Homo sapiens); assay: PARP1 inhibition assay; type: biochemical; conditions: read-out: Inhibition rate PARP1, 1 μmol/L; tested in duplicate, average
Endpoint Label: inhibition at 1 µM (%)
Report as a plain number; the unit % is understood.

>  <Molecule>
COc1cc(OC)c2c(=O)[nH]c(-c3cc(C)c(OCCOn4nnc5ccccc54)c(C)c3)nc2c1 [Compound 19i]

>  <Units Of Measure>
%

>  <inhibition at 1 µM>
11

$$$$

*Q* Entry under review: COc1cc(OC)c2c(=O)[nH]c(-c3cc(C)c(OCCOc4ccccc4C(N)=O)c(C)c3)nc2c1 [Compound 19f] . Reported inhibition at 1 µM?
*A* 40

*Q* Entry under review: O=C(c1ccc(-c2nc3ccccc3c(=O)[nH]2)c(F)c1)N1CCN(C(=O)C2CC2)CC1 [Compound 15b] . Reported inhibition at 1 µM?
*A* 6

*Q* Entry under review: COc1cc(OC)c2c(=O)[nH]c(-c3ccc(OCCOc4ccncc4C(N)=O)cc3)nc2c1 [Compound 19u] . Reported inhibition at 1 µM?
*A* 36

====

target: UniProt P09874; test: PARP1 inhibition assay; format: biochemical; details: read-out: Inhibition rate PARP1, 1 μmol/L; tested in duplicate, average
Endpoint Label: inhibition at 1 µM (%)
Report as a plain number; the unit % is understood.

>  <Compound>
COc1cc(OC)c2c(=O)[nH]c(-c3cc(Cl)ccc3OCCCCCOc3ccccc3C(N)=O)nc2c1 [Compound 19e]

>  <inhibition at 1 µM [%]>
18

$$$$
>  <Compound>
COc1cc(OC)c2c(=O)[nH]c(-c3cc(Cl)ccc3OCCCCOc3ccccc3C(N)=O)nc2c1 [Compound 19c]

>  <inhibition at 1 µM [%]>
29

$$$$
>  <Compound>
COc1cccc2nc(-c3cccc(C(=O)N4CCN(C(=O)C5CC5)CC4)c3)[nH]c(=O)c12 [Compound 11e]

>  <inhibition at 1 µM [%]>
4

$$$$
>  <Compound>
COc1cc(OC)c2c(=O)[nH]c(-c3cc(Cl)ccc3OCCCOc3ccccc3C(N)=O)nc2c1 [Compound 19b]

>  <inhibition at 1 µM [%]>
35

$$$$
>  <Compound>
COc1cccc2nc(-c3ccc(C(=O)N4CCN(C(=O)C5CC5)CC4)cc3F)[nH]c(=O)c12 [Compound 15e]

>  <inhibition at 1 µM [%]>
7

$$$$
>  <Compound>
COc1cc(OC)c2c(=O)[nH]c(-c3ccc(OCCOc4ccccc4C(N)=O)cc3)nc2c1 [Compound 19d]

>  <inhibition at 1 µM [%]>
37

$$$$
>  <Compound>
COc1cc(OC)c2c(=O)[nH]c(-c3cc(C)c(OCCOc4ccc5cn[nH]c5c4)c(C)c3)nc2c1 [Compound 19m]

>  <inhibition at 1 µM [%]>
7

$$$$
>  <Compound>
O=c1[nH]c(-c2cccc3nc[nH]c23)nc2ccccc12

>  <inhibition at 1 µM [%]>
3

$$$$

Next up:
*Q* Entry under review: `COc1cc(OC)c2c(=O)[nH]c(-c3ccc(N4CCOCC4)cc3)nc2c1` . Reported inhibition at 1 µM?
*A* 2
